Tested on: P388 leukemia ip, CD2F1 mice, survival T/C
Test: NCI In Vivo Anticancer Drug Screen. Data for tumor model P388 Leukemia (intraperitoneal) in CD2F1 (CDF1) mice
Conditions: endpoint: median survival time; dose: 100.0 mg/kg/injection; schedule: Q01DX009 (ip); vehicle: saline
Experimental: The antitumor activity of compounds was measured in mice bearing transplantable tumors. Survival or tumor size were measured and the results are expressed as the measurement made in the treated group (T) divided by the measurement made in the vehicle treated control group (C). The tumor model used in this assay is P388 Leukemia (intraperitoneal) in CD2F1 (CDF1) mice
Toxic doses and inconclusive results are not listed. How the source made its calls: active means survival T/C of 150% or more; inactive means T/C below 125% in these data.
Pick from True = active, False = inactive when you respond.

QUERY: Hi, do you know how `CSC(=S)NN=C(c1ccccc1)c1ccccc1` came out in this test?
RESULT: False

QUERY: Next up: `S=C(Nc1cc(Cl)cc(Cl)c1)SCc1ccccc1`
RESULT: False

QUERY: Do the same for CCOC(=O)N1CC2C=CC1C(C(C)=O)C2 (stereo not given) please
RESULT: False

QUERY: Also need `CCOC(=O)NCCCCl` , thanks.
RESULT: False

QUERY: Now try CC(=O)OCC1OC([n+]2cccc(C(N)=O)c2)C(OC(C)=O)C(OC(C)=O)C1OC(C)=O (stereo not given) .
RESULT: False

QUERY: Same question, `CCCCCCC(/C=C/c1ccc(Cl)c(Cl)c1)=N\NC(N)=O` this time
RESULT: False

QUERY: What would you report for OCC1OC2OC3C(CO)OC(OC4C(CO)OC(OC5C(CO)OC(OC6C(CO)OC(OC7C(CO)OC(OC1C(O)C2O)C(O)C7O)C(O)C6O)C(O)C5O)C(O)C4O)C(O)C3O (stereo not given) ?
RESULT: False

QUERY: What do you have for `CCNc1nncs1` ?
RESULT: True

QUERY: Then what about the compound `Nc1cc2ncccc2c2ccccc12` ?
RESULT: False

QUERY: `CCCC(=O)Nc1nc2ccc([N+](=O)[O-])cc2s1` ?
RESULT: False

QUERY: Also need CNC(=O)CC(N)C(=O)O (stereo not given) , thanks.
RESULT: False

QUERY: Also, `N#CC(=N)C(C#N)=Nc1c(O)[nH]c2ccc(Br)cc12` please.
RESULT: False

QUERY: # iterate: OCC1OC(OC2(CO)OC(CO)C(O)C2O)C(O)C(O)C1O (stereo not given)
RESULT: False

QUERY: Repeat for the following compound: OCC(O)C(O)C(O)Cc1ccc(O)cc1O (stereo not given)
RESULT: False

QUERY: # repeat for `CN(C)C=Nc1ccccc1`
RESULT: False

QUERY: Another: `O=Cc1ccc(O)c(O)c1`
RESULT: False

QUERY: Same for CCOCCC(O)CC (stereo not given)
RESULT: False

QUERY: # repeat for `CCOC(=O)C(CCC(OCC)OCC)C(=O)OCC`
RESULT: False

QUERY: Try `Cc1cc(O)c2c(O)c(-c3ccc4cc(C)cc(O)c4c3O)ccc2c1` next.
RESULT: False

QUERY: Param item: CN1CCC(/C=C/c2cccc3ccccc23)CN1 (stereo not given) (tested in a mixture with another compound)
RESULT: False

QUERY: Likewise for CCN(CC)CCC1CN(C(C)C)CC1(c1ccccc1)c1ccccc1 (stereo not given) ?
RESULT: False

QUERY: Try this compound next: `O=C(O)c1cc(O)ccc1O`
RESULT: False

QUERY: Now the compound `CCCCCCCCCCCCCCCCN1CCSCC1`
RESULT: False

QUERY: Field entry: CN1c2c(nc(N)[nH]c2=O)NCC1CCNc1ccc(C(=O)NC(CCC(=O)O)C(=O)O)cc1 (stereo not given)
RESULT: False

QUERY: CCCCCCCC[N+](C)([O-])CCCCCC[N+](C)([O-])CCCCCCCC (stereo not given) ?
RESULT: False
